Tested on: E. coli TOP10
assayDetails: Suicide expression system (SES) growth inhibition
Type: cell-based
measurementConditions: Table 5; mixed-motif library, re-tested in the Bioscreen C
measure: Growth inhibition (%)
Note: unit % is implicit; provide only the numeric part.

IN: Using the record for 236 (RRRPPRLPRPFPLRPPPRVPRPVPFRP; Synthetic antimicrobial peptide) [compound 236] , report its Growth inhibition (%).
OUT: 91

IN: Using the record for 220 (RRRPPRLPRPFPIRPPPRFPRPFPVRP; Synthetic antimicrobial peptide) [compound 220] , report its Growth inhibition (%).
OUT: 90

IN: Using the record for 214 (RRRPPRLPRPFPFRPPPRLPRPIPLRP; Synthetic antimicrobial peptide) [compound 214] , report its Growth inhibition (%).
OUT: 95

IN: Using the record for 223 (RRRPPRLPRPFPIRPPPRLPRPLPFRP; Synthetic antimicrobial peptide) [compound 223] , report its Growth inhibition (%).
OUT: 90

IN: Using the record for 258 (RRRPPRLPRPIPVRPPPRFPRPIPFRP; Synthetic antimicrobial peptide) [compound 258] , report its Growth inhibition (%).
OUT: 92

IN: Using the record for 210 (RRRPPRIPRPIPVRPPPRIPRPIPFRP; Synthetic antimicrobial peptide) [compound 210] , report its Growth inhibition (%).
OUT: 94

IN: Using the record for 252 (RRRPPRLPRPIPFRPPPRIPRPVPVRP; Synthetic antimicrobial peptide) [compound 252] , report its Growth inhibition (%).
OUT: 92

IN: Using the record for 250 (RRRPPRLPRPIPFRPPPRIPRPIPVRP; Synthetic antimicrobial peptide) [compound 250] , report its Growth inhibition (%).
OUT: 96

IN: Using the record for 298 (RRRPPRLPRPVPFRPPPRVPRPVPLRP; Synthetic antimicrobial peptide) [compound 298] , report its Growth inhibition (%).
OUT: 92

IN: Using the record for 222 (RRRPPRLPRPFPIRPPPRFPRPVPLRP; Synthetic antimicrobial peptide) [compound 222] , report its Growth inhibition (%).
OUT: 93
